# System: HepG2
# protocol.description: cytotoxicity call (relative viability < 0.9)
# measurement.setup: 10 µM
Out of some 39,000 compounds screened, about 3,300 (8.5%) were called active. This is one part of a sample in which actives are shown more often than they occur.
One label from this list, please: active, inactive

CCNC(=O)[C@H]1[C@H](CO)[C@H]2Cn3c(ccc(-c4ccc(OC)cc4)c3=O)[C@@H]1N2S(C)(=O)=O ... inactive
C[C@@H]1CN([C@H](C)CO)C(=O)c2cc(NC(=O)NC3CCCCC3)ccc2O[C@@H](C)CCCCO[C@H]1CN(C)Cc1ccccc1 ... inactive
C/C=C(/C)C(=O)O[C@H]1[C@@H](OC(C)=O)[C@@]2(CO)[C@@H](O)C[C@@]3(C)C(=CC[C@H]4[C@@]5(C)CC[C@@H](O[C@H]6O[C@H](C(=O)O)[C@@H](O[C@H]7O[C@@H](CO)[C@@H](O)[C@@H](O)[C@@H]7O)[C@@H](O)[C@@H]6O[C@H]6O[C@@H](CO)[C@@H](O)[C@@H](O)[C@@H]6O)[C@@](C)(CO)[C@@H]5CC[C@]43C)[C@@H]2CC1(C)C ... active
C[C@@H]1CN([C@H](C)CO)S(=O)(=O)c2ccc(-c3cccc(C#N)c3)cc2O[C@H]1CN(C)C(=O)c1ccncc1 ... inactive
C[C@@H]1CCCCO[C@H](CN(C)Cc2ccccc2)[C@@H](C)CN([C@H](C)CO)C(=O)c2cc(NC(=O)NC3CCCCC3)ccc2O1 ... inactive

In this assay, the call recorded for C[C@H]1CCCCO[C@H](CN(C)Cc2ccccc2)[C@@H](C)CN([C@@H](C)CO)C(=O)c2cc(NC(=O)NC3CCCCC3)ccc2O1 was what?
active

* * *

# Tested on: HepG2
# protocol.description: cytotoxicity call (relative viability < 0.9)
# measurement.setup: 10 µM
Out of some 39,000 compounds screened, about 3,300 (8.5%) were called active. This excerpt belongs to a sample that is enriched for actives.
endpoint.name: cytotoxicity call

Here is how some compounds turned out for cytotoxicity call.
COC(=O)[C@@H](Cc1ccccc1)N[C@H](/C=C/C1CC1)[C@@H](O)CCn1cc(-c2ccc(C(=O)NO)s2)nn1 ... active
C[C@H]1CN([C@@H](C)CO)C(=O)Cc2cc(NC(=O)Nc3ccccc3)ccc2O[C@H]1CN(C)Cc1ccc(-c2ccccc2)cc1 ... inactive
O=[N+]([O-])c1ccc(/C=C/CN(C/C=C/c2ccc([N+](=O)[O-])cc2)CCNS(=O)(=O)c2cccc3cnccc23)cc1 ... inactive
C[C@@H]1CN([C@H](C)CO)C(=O)Cc2cc(NC(=O)Nc3ccccc3)ccc2O[C@H]1CN(C)Cc1ccc(-c2ccccc2)cc1 ... inactive

Look up cytotoxicity call: O=C1C=C(O)C(=O)c2ccccc21
inactive

Which cytotoxicity call is listed for O=[N+]([O-])c1ccc(/C=C/CN(C/C=C/c2ccc([N+](=O)[O-])cc2)CCCCNS(=O)(=O)c2cccc3cnccc23)cc1 ?
inactive

Which cytotoxicity call value is on record for O=S(=O)(NCCCCN(C/C=C/c1ccccc1)C/C=C/c1ccccc1)c1cccc2cnccc12 ?
inactive

cytotoxicity call lookup needed for CCOc1nc2cccc(C(=O)O[C@@H](C)OC(=O)OC3CCCCC3)c2n1Cc1ccc(-c2ccccc2-c2nn[nH]n2)cc1 , thanks.
inactive

Give its cytotoxicity call value. Item: C[C@@H]1CN([C@H](C)CO)C(=O)Cc2cc(NC(=O)Nc3ccccc3)ccc2O[C@@H]1CN(C)Cc1ccc(-c2ccccc2)cc1
active

Which value of cytotoxicity call has been reported for COC(=O)[C@@H](Cc1ccccc1)N[C@H](/C=C/C1CC1)[C@@H](O)CCn1cc(-c2ccc(C(=O)NO)cc2)nn1 in the records?
active

Can you share its cytotoxicity call? I mean this compound: COC(=O)C(CC#Cc1ccc2c(c1)[C@]1(C(=O)N2)[C@H](c2ccc(O)cc2)N2[C@H](c3ccccc3)[C@H](c3ccccc3)OC(=O)[C@H]2[C@@H]1C(=O)NC[C@H](O)c1ccccc1)C(=O)OC
inactive

Quick one: cytotoxicity call for COc1ccc(NC(=O)N(C)C[C@@H]2Oc3ncc(Br)cc3C(=O)N([C@H](C)CO)C[C@@H]2C)cc1 ?
inactive

Please report the recorded cytotoxicity call for C[C@H](CO)N1C[C@H](C)[C@H](CN(C)S(=O)(=O)c2ccc(F)cc2)Oc2ncc(C#Cc3ccc(F)cc3)cc2C1=O .
active

Query: cytotoxicity call; subject: COc1ccc(/C=C/CN(C/C=C/c2ccc(OC)cc2)CCCNS(=O)(=O)c2cccc3cnccc23)cc1
inactive

GET /values?readout=cytotoxicity call&item= Cc1ccc(S(=O)(=O)N(C)C[C@@H]2OCCCC[C@H](C)Oc3ccc(NC(=O)CCC(F)(F)F)cc3C(=O)N([C@H](C)CO)C[C@H]2C)cc1
inactive

* * *

# Tested on: HepG2
# protocol.description: cytotoxicity call (relative viability < 0.9)
# measurement.setup: 10 µM
Among all 39,000 compounds or so, about 3,300 (8.5%) were called active. What follows is part of a selection rich in actives, with near analogues and random picks from the rest.
Choose one outcome from this list and give only that: active, inactive

Cc1noc(C)c1NC(=O)Nc1ccc2c(c1)C(=O)N([C@H](C)CO)C[C@@H](C)[C@H](CN(C)Cc1ccccc1)OCCCC[C@@H](C)O2 ... inactive
C[C@H](CO)N1C[C@H](C)[C@@H](CN(C)S(C)(=O)=O)Oc2ccc(NC(=O)Cn3cnnn3)cc2CC1=O ... inactive
CCC[C@@]1(CCc2ccccc2)CC(=O)[C@@H]([C@H](CC)c2cccc(NS(=O)(=O)c3ccc(C(F)(F)F)cn3)c2)C(=O)O1 ... inactive

Any idea what this test logged for COc1ccc(CN(C)C[C@@H]2OCCCC[C@H](C)Oc3ccc(NC(=O)Nc4ccc(C(F)(F)F)cc4)cc3C(=O)N([C@H](C)CO)C[C@@H]2C)cc1 ?
active

Fill in: this test's call for COc1ccc(CN(C)C[C@@H]2OCCCC[C@H](C)Oc3ccc(NC(=O)Nc4ccc(C(F)(F)F)cc4)cc3C(=O)N([C@@H](C)CO)C[C@@H]2C)cc1 is ___
active

Assay outcome for Cc1ccc(S(=O)(=O)Nc2ccc3c(c2)C(=O)N([C@@H](C)CO)C[C@H](C)[C@H](CN(C)C(=O)Nc2c(C)noc2C)OCCCC[C@H](C)O3)cc1 : what was it?
inactive

Identify the outcome logged in this assay for the compound shown: Cc1noc(C)c1NC(=O)N[C@@H]1CC[C@@H](CC(=O)NCCCN(C)C)O[C@@H]1CO
inactive

* * *

# System: HepG2
# protocol.description: cytotoxicity call (relative viability < 0.9)
# measurement.setup: 10 µM
Hit rate of the full screen: of about 39,000 compounds, about 3,300 (8.5%) were called active. The sample as a whole holds a higher share of actives than the screen did.
endpoint.name: cytotoxicity call

Known cytotoxicity call results, listed for orientation:
Cc1nn(C)cc1NC(=O)C[C@H]1CC[C@H]2[C@@H](COc3ccc(NC(=O)C4CCOCC4)cc3C(=O)N2C)O1 ... inactive
C[C@@H]1CCCCO[C@H](CN(C)S(=O)(=O)c2ccc(F)cc2)[C@H](C)CN([C@@H](C)CO)C(=O)c2cc(NS(=O)(=O)c3ccc(Cl)cc3)ccc2O1 ... active
COc1ccc(NC(=O)N(C)C[C@@H]2Oc3ncc(-c4cccc(C(F)(F)F)c4)cc3C(=O)N([C@H](C)CO)C[C@@H]2C)cc1 ... inactive
C[C@@H]1CCCCO[C@@H](CN(C)S(=O)(=O)c2ccc(Cl)cc2)[C@@H](C)CN([C@@H](C)CO)C(=O)c2cc(NS(=O)(=O)c3ccc(F)cc3)ccc2O1 ... active
C[C@H](CO)N1C[C@H](C)[C@H](CN(C)S(=O)(=O)c2ccc(Cl)cc2)OCCCC[C@H](C)Oc2ccc(NS(=O)(=O)c3ccc(F)cc3)cc2C1=O ... active

Please find the next compound below.
Data request, read-out cytotoxicity call, for O=C(C[C@@H]1CC[C@H]2[C@@H](COC[C@@H](O)CN2S(=O)(=O)c2cccc(Cl)c2)O1)NC1Cc2ccccc2C1
inactive

* * *

# Test system: HepG2
# protocol.description: cytotoxicity call (relative viability < 0.9)
# measurement.setup: 10 µM
The campaign covered roughly 39,000 compounds. About 3,300 (8.5%) were called active. Many of the other results were omitted from the sample, so actives are more common in it than they were.
// allowed return values: active, inactive

Record excerpt, results attached:
C[C@H]1CCCCO[C@H](CN(C)C(=O)Nc2cccc3ccccc23)[C@@H](C)CN([C@@H](C)CO)C(=O)c2cc(NS(=O)(=O)c3ccc(F)cc3)ccc2O1 ... active
COc1ccc(NC(=O)N(C)C[C@@H]2OCCCC[C@H](C)Oc3ccc(NS(=O)(=O)c4ccc(F)cc4)cc3C(=O)N([C@@H](C)CO)C[C@@H]2C)cc1 ... inactive
OCCN1CCN(c2ncnc3c2ncn3[C@H]2CN(Cc3ccccc3)C[C@@H](CO)O2)CC1 ... inactive
C[C@@H]1CCCCO[C@@H](CN(C)C(=O)Nc2cccc3ccccc23)[C@@H](C)CN([C@H](C)CO)C(=O)c2cc(NS(=O)(=O)c3ccc(F)cc3)ccc2O1 ... inactive
COc1ccc(NC(=O)N(C)C[C@H]2OCCCC[C@H](C)Oc3ccc(NS(=O)(=O)c4ccc(F)cc4)cc3C(=O)N([C@H](C)CO)C[C@@H]2C)cc1 ... inactive
CC(C)CC#Cc1cnc2c(c1)C(=O)N([C@@H](C)CO)C[C@@H](C)[C@@H](CN(C)C(=O)CN1CCOCC1)O2 ... inactive

Which outcome was entered for the molecule C[C@H]1CN([C@@H](C)CO)C(=O)c2cccc(NC(=O)Nc3ccc4c(c3)OCO4)c2O[C@@H]1CN(C)Cc1ccc(C(=O)Nc2ccccc2N)cc1 in this test?
inactive

# lookup: test call for C[C@@H]1CN([C@@H](C)CO)C(=O)c2cccc(NC(=O)C3CCCCC3)c2O[C@H]1CN(C)C(=O)Nc1cccc2ccccc12
inactive

Outcome? C[C@@H]1CN([C@@H](C)CO)C(=O)c2cccc(NS(=O)(=O)c3ccccc3)c2O[C@H]1CN(C)Cc1ccncc1
inactive

Outcome? O=S1(=O)CC[C@H](N[C@H]2CCS(=O)(=O)C2)C1
inactive

Per the records of this test, what outcome belongs to CCS(=O)(=O)Nc1ccc2c(c1)C(=O)N(C)C[C@H](OC)[C@@H](C)CN(Cc1ccccn1)[C@H](C)CO2 ?
inactive

How did this test come out for C[C@@H]1CCCCO[C@@H](CN(C)S(=O)(=O)c2ccc(Cl)cc2)[C@@H](C)CN([C@H](C)CO)C(=O)c2cc(NC(=O)CCCCCC(=O)Nc3ccccc3N)ccc2O1 ?
inactive
